System: Hek293T
Method: Primary qHTS to identify gynecologic anti-cancer compounds using libraries of approved drugs and bioactive compounds (AID 1345084); further: nearly all actives have a fitted effect of over 55% in size
Particulars: Gynecologic cancer cell panel viability, ATPlite luminescence, 48 h, control line for the selectivity index; series mostly up to 57.5 µM
Results filed as inconclusive are left out. Calls of active or inactive are those of the source. The call rests on the fitted dose curve; in most records, active means well fitted cell-killing curve with a large enough effect; inconclusive means small, poorly fitted or top-dose-only effect, or effect the other way; inactive means flat fitted curve, though single readings scatter.
One label from this list, please: active, inactive

Please review the entries below; each comes with its answer.
O=C1c2ccc(Nc3ccc(F)cc3F)cc2CCc2ccc(OCC(O)CO)cc21 (centres undefined)
inactive
COc1cc(F)c(C(C)C)cc1-c1ccc(C(F)(F)F)cc1CN1C(=O)OC(c2cc(C(F)(F)F)cc(C(F)(F)F)c2)C1C (centres undefined)
inactive

Lab log entry: `COc1cc(C(=O)NCC2(N(C)C)CCCC2)cc(OC)c1OCc1ccccc1` — outcome as called in the assay? inactive

Lab log entry: `Cc1cn2c(n1)Cc1ccc(Cl)cc1C(c1ccc(N)cc1)=N2` — outcome as called in the assay? inactive
